Source of measurements: the supplement of paper PMC9170038

- Tested on: MS2 coat protein
- Assay text: apparent KD of MS2 coat protein; higher = weaker reporter binding
- Condition context: Eterna round: R107; input ligand: arginine 13.2 mM
Property name: apparent KD of MS2 coat protein (nM)
Give bare numbers, in nM.

Chain sequence	Endpoint unit	apparent KD of MS2 coat protein
CUUACACAUGAGGAUCACCCAUGUCAUGAUACCAGCCAAUACACUGGCCCUUGGCAGCAUCUCAGCCUCAGCUACAUUGACUGAC [theeternabot_sameState_MS2_Theo_A_2]	nM	18.9

# map each sequence to its apparent KD of MS2 coat protein
1. UGUUUGGUGCGCGAGUGUUGGAUAAUUGAUACCAGUGUAGAAGAGCGCCCUUGGCAGCGAAUCCUAACAUGAGGAUCACCCAUGU [5.W]
2. ACAUGAGGAUCACCCAUGUGCCGAGUUGAUACCAGACCCGCACUAGUCCCUUGGCAGCAACUACGUGUGGGACACCCAUGUUAAG [qaqmullin]
3. GGGAGGGAGGCGGCCGCCACUGAUUUUCAUAUAUAUAUAACAUGAGGAUCACCCAUGUAGAUAUGCAGGACCGGGCCUUUUUUUU [aaaI]

Result:
[37.6, 29.1, 21.3]

Could I get apparent KD of MS2 coat protein for every one of these entries?
1. UGUACAUGAGGAUCACCCAUGUUACAUGAUACCAGACAUGAGAGUGUCCCUUGGCAGCAUGGAGCUGAUACGGCGGGAAGCCGGA [#09 SameState-TheophyllineA]
2. AUUACAUGAGCAUCAGCACAUGAGGAUCACCGAGGACCGGUACGGCCGCCACUCGACACAUGAGGAUCACCCAUGUGUUGUUGUU [Exclusion Tryptophan A 3]
3. GCUGCCAUACGAAGGAGCGCUGCUGCGAUGUGGCGAACAUGAGGAUCACCCAUGUGGCAGCGGCAGGUAGGUCGCGUAUGGCAGC [#02 Exclusion - Arginine B]
4. UGGAGAUAGACGGCCGCCACUAACAUGAGGAUCACCCAUGUCGUCACGAAUGGAUGGCCCUAGAAUAGGACCGGGUCCGGAUUCA [theeternabot_exclusion_MS2_Trp_B_48]
5. CACUACAUGAGGAUCACCCAUGUCUUCCGACGAGGACCGGUACGGCCGCCACUCGAACCUCCAACUAAUACCUCAACCGUCUGAU [theeternabot_sameState_MS2_Trp_A_25]
6. GUUUUGGGAUCGGCCGCCACUACAUGAGGAUCACCCAUGUGGACAAAUAGGGUUUUUAAGCUCGGUAGGACCGGGAUUCGAACAU [Abeis]

Result:
1. 26.1
2. 24.6
3. 45.2
4. 23.7
5. 36.5
6. 15.4

Batch: apparent KD of MS2 coat protein for all items listed.
1. GCUUGCUUGUAAGGUUCUGUCCGGCGUCGUCGAGGACCGGUACGGCCGCCACUCGCGCGUUUACAUGAGGAUCACCCAUGUCAUG [theeternabot_exclusion_MS2_Trp_A_49]
2. UGAUACCAGUCGGCCGCCACUAUGCUAGAUACUAGCAAUAAAUGGGAACAUGAGGAUCACCCAUGUAGGACCGGGACUGGUAUCU

Result:
34.3
32.1
